- method_notes: Redox activity of compound assessed as redox index at 1 uM measured by resazurin assay
- Type: physicochemical
readout_label: Activity_index

> print(dat)
                     smiles.str  number
 1          CCOC(=O)c1csc(Br)n1     0.9
 2            O=C(O)c1nc(Br)cs1     0.9
 3     Fc1ccc(-c2csc(Br)n2)cc1F     0.9
 4          CNc1nnc(C(F)(F)F)s1       1
 5           CCOC(=O)c1csc(N)n1     0.9
 6                Brc1cnc(Br)s1     0.9
 7          CCOC(=O)Cc1csc(N)n1     0.9
 8             CC(=O)c1nc(C)cs1     0.9
 9                    Brc1cscn1     0.9
10     O=C(O)c1csc(-c2ccncc2)n1       1
11  Cc1nc(-c2ccc(C(=O)O)cc2)cs1     0.9
12     COC(=O)C(=O)Nc1ncc(Br)s1     0.9
13           COC(=O)c1cnc(Br)s1       1
14         CCOC(=O)Cc1csc(Br)n1     0.9
15              O=C(O)c1scnc1Br     0.9
16   O=S(=O)(Cc1ccccc1)Nc1nccs1       1

###

- system_under_test: UDP-N-acetylglucosamine 1-carboxyvinyltransferase (Escherichia coli K-12) (UniProt P0A749)
- Sequence (P0A749 whole entry): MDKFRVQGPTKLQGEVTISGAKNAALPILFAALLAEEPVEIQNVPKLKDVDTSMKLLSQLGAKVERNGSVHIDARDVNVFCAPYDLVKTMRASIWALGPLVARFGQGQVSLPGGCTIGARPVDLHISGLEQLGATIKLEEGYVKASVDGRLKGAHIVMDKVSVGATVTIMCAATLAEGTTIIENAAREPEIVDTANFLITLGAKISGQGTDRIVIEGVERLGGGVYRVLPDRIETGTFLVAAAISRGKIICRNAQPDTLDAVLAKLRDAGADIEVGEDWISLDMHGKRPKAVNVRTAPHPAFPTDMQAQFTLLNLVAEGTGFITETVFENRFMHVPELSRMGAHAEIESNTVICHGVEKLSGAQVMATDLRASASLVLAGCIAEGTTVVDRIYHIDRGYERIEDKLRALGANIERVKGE
- method_notes: Inhibition of recombinant Escherichia coli MurA assessed as residual activity at 500 uM using UDP-N-acetylglucosamine as substrate preincubated for 30 mins followed by substrate addition and measured by malachite green based colorimetric assay relative to control
readout_label: Activity (%)

> print(dat)
                        smiles.str  readout.label  unit.abbrev  number
 1               Nc1nc(CC(=O)O)cs1       Activity            %    79.4
 2                CC(=O)c1nc(C)cs1       Activity            %    93.9
 3             Nc1nc(-c2ccncc2)cs1       Activity            %    56.7
 4                Nc1nc(C(=O)O)cs1       Activity            %       0
 5            NCCc1cn(Cc2cscn2)nn1       Activity            %       0
 6                   Cc1nc(CCl)cs1       Activity            %    48.4
 7              O=C(O)Cc1csc(Br)n1       Activity            %    72.1
 8                       Clc1nccs1       Activity            %     0.8
 9                        Nc1nccs1       Activity            %    39.7
10                 Nc1nnc(C2CC2)s1       Activity            %     2.2
11              Cc1nc(Br)sc1C(=O)O       Activity            %    18.5
12                    Nc1ncc(Br)s1       Activity            %       9
13  O=C(O)c1csc(Nc2cccc3ncccc23)n1       Activity            %       0
14      O=S(=O)(Cc1ccccc1)Nc1nccs1       Activity            %       0
15            CCOC(=O)Cc1csc(Br)n1       Activity            %    66.7
16                     Cc1nnc(N)s1       Activity            %    89.5
17     Cc1nc(-c2ccc(C(=O)O)cc2)cs1       Activity            %     113

###

# Activity per record follows
- system_under_test: UDP-N-acetylglucosamine 1-carboxyvinyltransferase (Escherichia coli K-12) (UniProt P0A749)
- method_notes: Inhibition of recombinant Escherichia coli MurA assessed as residual activity at 500 uM using UDP-N-acetylglucosamine as substrate and measured by malachite green based colorimetric assay relative to control
readout_label: Activity (%)

> print(dat)
                 smiles.str  number
 1       COC(=O)c1cnc(Br)s1    96.6
 2            N#Cc1cnc(N)s1    18.9
 3          Nc1nnc(C2CC2)s1     3.5
 4         Nc1nc(C(=O)O)cs1     1.6
 5           N#Cc1cnc(Br)s1      96
 6                Brc1nncs1      47
 7              Cc1nnc(N)s1    92.9
 8                Clc1nccs1    18.9
 9      CCOC(=O)c1csc(Br)n1    89.8
10            Cc1nc(CCl)cs1    89.6
11        Nc1nc(CC(=O)O)cs1    90.8
12  O=C(O)C(=O)Nc1ncc(Br)s1    11.3
13        O=C(O)c1nc(Br)cs1    97.3
14     NCCc1cn(Cc2cscn2)nn1    28.1
15                Brc1cscn1     100

###

- system_under_test: UDP-N-acetylglucosamine 1-carboxyvinyltransferase (Escherichia coli K-12)
- method_notes: Inhibition of recombinant Escherichia coli MurA assessed as residual activity at 500 uM using UDP-N-acetylglucosamine as substrate preincubated for 30 mins followed by substrate addition and measured by malachite green based colorimetric assay relative to control
# Activity per record follows
readout_label: Activity

> print(dat)
                      smiles.str  readout.label  result
 1                 Brc1cnc(Br)s1       Activity      0%
 2                  Cc1cnc(Br)s1       Activity    8.2%
 3               O=C(O)c1scnc1Br       Activity   83.1%
 4            COC(=O)c1csc(Br)n1       Activity    117%
 5    COC(=O)CC(=O)Nc1ncc(C#N)s1       Activity    5.8%
 6              Cc1nc(C(=O)O)cs1       Activity    1.6%
 7           CCOC(=O)c1csc(Br)n1       Activity     84%
 8                   Cc1csc(N)n1       Activity   93.3%
 9  Nc1ccc(S(=O)(=O)Nc2nccs2)cc1       Activity   82.3%
10      N#Cc1cnc(NC(=O)C(=O)O)s1       Activity   90.6%
11            COC(=O)c1cnc(Br)s1       Activity     93%
12       O=C(O)C(=O)Nc1ncc(Br)s1       Activity    1.2%
13             O=C(O)c1csc(Br)n1       Activity     96%
14           CCOC(=O)c1cnc(Br)s1       Activity   14.9%
15           CNc1nnc(C(F)(F)F)s1       Activity    113%
16                     Brc1cscn1       Activity    106%
17      O=C(O)c1csc(-c2ccncc2)n1       Activity   90.4%
18             O=C(O)c1nc(Br)cs1       Activity     90%
19                N#Cc1cnc(Br)s1       Activity   94.3%
20                     Brc1nncs1       Activity    143%
21                   Cc1cnc(N)s1       Activity   85.2%
22           CCOC(=O)Cc1csc(N)n1       Activity   66.3%
23     N#Cc1cnc(NC(=O)CC(=O)O)s1       Activity   20.3%
24   O=C(O)c1csc(-c2ccc(F)cc2)n1       Activity   12.8%
25            CC(C)(C)c1csc(N)n1       Activity    3.5%
26          CCOC(=O)c1sc(Br)nc1C       Activity    9.1%
27                 N#Cc1cnc(N)s1       Activity    6.1%
28            CCOC(=O)c1csc(N)n1       Activity      9%
29            Nc1nnc(C(F)(F)F)s1       Activity     18%
30      Fc1ccc(-c2csc(Br)n2)cc1F       Activity     12%
31     COC(=O)CC(=O)Nc1ncc(Br)s1       Activity   60.9%
32      COC(=O)C(=O)Nc1ncc(Br)s1       Activity   37.2%
